test_name: Liver microsome stability assay, rat
Type: in vitro ADME
condition: liver microsomes, pH 7.4
measured_attribute: CLint scaled at 1 μM (mL/min/kg)
Give bare numbers, in mL/min/kg.

Ask: For the compound COc1ccc2c(c1OCc1ccccc1)C[C@@H](C(=O)O)N(C(=O)C(c1ccccc1)c1ccccc1)C2 , give its measured CLint scaled at 1 μM value.
Reply: 25.9

---

test_name: In vivo pharmacokinetic study in rats
condition: male, Sprague Dawley, rat, plasma, iv, 1 mg/kg
measured_attribute: half-life (h)
Give bare numbers, in h.

Ask: For the molecule COc1ccc2c(c1OCc1ccccc1)C[C@@H](C(=O)O)N(C(=O)C(c1ccccc1)c1ccccc1)C2 , give its measured half-life value.
Reply: 1.6

---

measured_on: CYP3A4 (Homo sapiens, UniProt P08684)
Sequence (P08684 whole entry): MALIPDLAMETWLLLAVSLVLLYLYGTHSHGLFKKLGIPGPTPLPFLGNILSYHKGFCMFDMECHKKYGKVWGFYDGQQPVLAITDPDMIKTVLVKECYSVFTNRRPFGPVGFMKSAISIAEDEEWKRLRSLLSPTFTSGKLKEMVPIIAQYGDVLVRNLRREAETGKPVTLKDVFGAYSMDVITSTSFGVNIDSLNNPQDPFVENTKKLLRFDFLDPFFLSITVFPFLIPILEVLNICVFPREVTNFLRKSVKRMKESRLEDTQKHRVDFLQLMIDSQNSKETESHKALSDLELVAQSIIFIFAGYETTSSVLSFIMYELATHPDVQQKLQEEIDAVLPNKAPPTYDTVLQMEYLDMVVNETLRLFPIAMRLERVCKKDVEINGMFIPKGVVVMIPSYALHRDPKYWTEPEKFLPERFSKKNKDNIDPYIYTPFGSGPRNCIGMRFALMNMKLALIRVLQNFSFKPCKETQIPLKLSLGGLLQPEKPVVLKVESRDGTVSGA
pIC50: −log10 of the molar value.
measured_attribute: pIC50

Ask: For the molecule COc1ccc2c(c1OCc1ccccc1)C[C@@H](C(=O)O)N(C(=O)C(c1ccccc1)c1ccccc1)C2 , give its measured pIC50 value.
Reply: < 4.30

---

test_name: Plasma protein binding by equilibrium dialysis, rat
Format: in vitro ADME
condition: pH 7.4
measured_attribute: fraction unbound at 6 h, 1 μM

Ask: For the compound COc1ccc2c(c1OCc1ccccc1)C[C@@H](C(=O)O)N(C(=O)C(c1ccccc1)c1ccccc1)C2 [EMA401] , give its measured fraction unbound at 6 h, 1 μM value.
Reply: < 0.001

---

measured_on: UniProt:Q12809
Sequence (Q12809 whole entry): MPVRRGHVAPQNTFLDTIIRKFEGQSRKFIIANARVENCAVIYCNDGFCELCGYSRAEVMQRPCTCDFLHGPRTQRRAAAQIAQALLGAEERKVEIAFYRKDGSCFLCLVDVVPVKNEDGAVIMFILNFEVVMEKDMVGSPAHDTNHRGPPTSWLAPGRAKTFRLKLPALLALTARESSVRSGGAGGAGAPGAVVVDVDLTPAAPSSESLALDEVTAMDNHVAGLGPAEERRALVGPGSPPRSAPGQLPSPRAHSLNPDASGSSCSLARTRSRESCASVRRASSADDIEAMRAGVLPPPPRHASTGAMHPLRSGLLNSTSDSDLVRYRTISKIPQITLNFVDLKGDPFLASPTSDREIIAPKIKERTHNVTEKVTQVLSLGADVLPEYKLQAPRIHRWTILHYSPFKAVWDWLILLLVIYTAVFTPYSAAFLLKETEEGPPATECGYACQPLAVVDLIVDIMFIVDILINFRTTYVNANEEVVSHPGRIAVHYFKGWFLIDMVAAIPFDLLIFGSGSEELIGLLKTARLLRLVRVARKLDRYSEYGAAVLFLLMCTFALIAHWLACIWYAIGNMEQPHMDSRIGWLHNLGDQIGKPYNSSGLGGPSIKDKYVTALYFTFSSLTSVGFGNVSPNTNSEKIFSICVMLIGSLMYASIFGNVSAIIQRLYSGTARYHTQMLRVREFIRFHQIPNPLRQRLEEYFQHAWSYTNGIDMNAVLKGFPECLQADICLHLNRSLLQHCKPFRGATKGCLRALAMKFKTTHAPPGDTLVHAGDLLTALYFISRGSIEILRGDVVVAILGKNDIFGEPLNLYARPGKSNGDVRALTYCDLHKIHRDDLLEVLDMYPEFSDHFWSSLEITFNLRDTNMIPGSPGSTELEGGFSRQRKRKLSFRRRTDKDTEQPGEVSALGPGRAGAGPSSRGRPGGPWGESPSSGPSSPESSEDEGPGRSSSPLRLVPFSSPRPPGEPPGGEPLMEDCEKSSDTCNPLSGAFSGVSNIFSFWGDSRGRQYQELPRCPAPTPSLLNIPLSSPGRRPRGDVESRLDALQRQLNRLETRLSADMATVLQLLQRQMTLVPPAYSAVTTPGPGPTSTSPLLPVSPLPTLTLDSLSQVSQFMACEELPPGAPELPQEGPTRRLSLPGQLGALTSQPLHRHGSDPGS
test_name: hERG patch clamp assay
measured_attribute: IC50

Ask: For the molecule COc1ccc2c(c1OCc1ccccc1)C[C@@H](C(=O)O)N(C(=O)C(c1ccccc1)c1ccccc1)C2 [EMA401] , give its measured IC50 value.
Reply: > 10 µM

---

test_name: Caco-2 cell permeability assay
Type: in vitro ADME
condition: human, Caco-2, pH 7.4
measured_attribute: Papp A→B at 90 min, 10 µM (×10⁻⁶ cm/s)
Numbers only, in ×10⁻⁶ cm/s.

Ask: For the compound COc1ccc2c(c1OCc1ccccc1)C[C@@H](C(=O)O)N(C(=O)C(c1ccccc1)c1ccccc1)C2 , give its measured Papp A→B at 90 min, 10 µM value.
Reply: 3.3

---

test_name: Plasma protein binding by equilibrium dialysis, human
Format: in vitro ADME
condition: pH 7.4
measured_attribute: fraction unbound at 6 h, 1 μM

Ask: For the compound COc1ccc2c(c1OCc1ccccc1)C[C@@H](C(=O)O)N(C(=O)C(c1ccccc1)c1ccccc1)C2 [EMA401] , give its measured fraction unbound at 6 h, 1 μM value.
Reply: < 0.001

---

test_name: In vivo pharmacokinetic study in rats
condition: male, Sprague Dawley, rat, plasma, po, 10 mg/kg
measured_attribute: Cmax (ng/mL)
Give bare numbers, in ng/mL.

Ask: For the molecule COc1ccc2c(c1OCc1ccccc1)C[C@@H](C(=O)O)N(C(=O)C(c1ccccc1)c1ccccc1)C2 [EMA401] , give its measured Cmax value.
Reply: 470

---

measured_on: CYP1A2 (Homo sapiens)
Sequence (P05177 1-516): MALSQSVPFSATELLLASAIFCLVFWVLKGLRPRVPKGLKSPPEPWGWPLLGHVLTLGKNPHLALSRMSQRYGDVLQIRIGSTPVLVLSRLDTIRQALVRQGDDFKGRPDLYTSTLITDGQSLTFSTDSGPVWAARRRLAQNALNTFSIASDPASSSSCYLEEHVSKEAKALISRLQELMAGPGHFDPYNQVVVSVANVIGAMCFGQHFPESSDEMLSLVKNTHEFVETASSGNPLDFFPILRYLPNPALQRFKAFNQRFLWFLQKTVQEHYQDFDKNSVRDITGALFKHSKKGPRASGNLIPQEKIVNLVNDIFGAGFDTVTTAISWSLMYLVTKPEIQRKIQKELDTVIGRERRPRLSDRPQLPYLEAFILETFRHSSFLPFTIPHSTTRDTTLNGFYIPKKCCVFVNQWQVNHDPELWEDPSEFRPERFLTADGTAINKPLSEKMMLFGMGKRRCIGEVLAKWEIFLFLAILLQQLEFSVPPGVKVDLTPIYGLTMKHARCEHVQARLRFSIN
pIC50: −log10 of the molar value.
measured_attribute: pIC50

Ask: For the molecule COc1ccc2c(c1OCc1ccccc1)C[C@@H](C(=O)O)N(C(=O)C(c1ccccc1)c1ccccc1)C2 , give its measured pIC50 value.
Reply: < 4.30

---

test_name: Liver microsome stability assay, human
Assay type: in vitro ADME
condition: liver microsomes, pH 7.4
measured_attribute: CLint scaled at 1 μM (mL/min/kg)
Numbers only, in mL/min/kg.

Ask: For the compound COc1ccc2c(c1OCc1ccccc1)C[C@@H](C(=O)O)N(C(=O)C(c1ccccc1)c1ccccc1)C2 , give its measured CLint scaled at 1 μM value.
Reply: 25

---

test_name: In vivo pharmacokinetic study in rats
condition: male, Sprague Dawley, rat, plasma, po, 10 mg/kg
measured_attribute: AUC(0-t) (ng·h/mL)
Give bare numbers, in ng·h/mL.

Ask: For the molecule COc1ccc2c(c1OCc1ccccc1)C[C@@H](C(=O)O)N(C(=O)C(c1ccccc1)c1ccccc1)C2 , give its measured AUC(0-t) value.
Reply: 1470

---

measured_on: UniProtKB P33261
Sequence (P33261 whole entry): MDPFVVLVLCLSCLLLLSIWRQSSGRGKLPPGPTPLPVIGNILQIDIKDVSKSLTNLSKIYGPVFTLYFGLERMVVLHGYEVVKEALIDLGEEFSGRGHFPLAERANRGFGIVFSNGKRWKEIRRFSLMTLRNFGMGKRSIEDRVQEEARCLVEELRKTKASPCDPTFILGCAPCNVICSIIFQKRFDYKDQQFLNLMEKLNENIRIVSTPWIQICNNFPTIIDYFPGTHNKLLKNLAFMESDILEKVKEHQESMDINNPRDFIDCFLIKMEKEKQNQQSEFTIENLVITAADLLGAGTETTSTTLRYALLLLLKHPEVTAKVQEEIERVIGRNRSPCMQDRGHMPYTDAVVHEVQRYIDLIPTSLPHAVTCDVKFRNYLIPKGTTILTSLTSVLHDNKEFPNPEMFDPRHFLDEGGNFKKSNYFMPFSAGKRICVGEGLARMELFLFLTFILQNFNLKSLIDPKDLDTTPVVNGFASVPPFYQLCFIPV
pIC50: −log10 of the molar value.
measured_attribute: pIC50

Ask: Specify pIC50 for COc1ccc2c(c1OCc1ccccc1)C[C@@H](C(=O)O)N(C(=O)C(c1ccccc1)c1ccccc1)C2 , system UniProtKB P33261.
Reply: < 4.30

---

measured_on: CYP2C9 (Homo sapiens, UniProt P11712)
Sequence (P11712 whole entry): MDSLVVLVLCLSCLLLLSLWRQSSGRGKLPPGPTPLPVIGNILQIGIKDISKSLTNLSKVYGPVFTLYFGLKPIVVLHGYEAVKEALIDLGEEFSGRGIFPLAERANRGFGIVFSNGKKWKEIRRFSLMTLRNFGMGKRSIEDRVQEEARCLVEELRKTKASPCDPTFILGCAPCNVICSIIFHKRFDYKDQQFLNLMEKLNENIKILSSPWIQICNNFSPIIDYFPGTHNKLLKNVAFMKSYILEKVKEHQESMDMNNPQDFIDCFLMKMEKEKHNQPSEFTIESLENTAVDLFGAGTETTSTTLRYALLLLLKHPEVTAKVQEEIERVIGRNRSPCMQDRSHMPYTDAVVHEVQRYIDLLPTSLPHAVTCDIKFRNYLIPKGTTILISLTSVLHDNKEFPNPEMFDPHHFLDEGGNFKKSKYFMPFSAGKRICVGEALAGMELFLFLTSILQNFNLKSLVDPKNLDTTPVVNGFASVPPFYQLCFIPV
measured_attribute: IC50 (µM)
Answers are plain numbers, in µM.

Ask: For the compound COc1ccc2c(c1OCc1ccccc1)C[C@@H](C(=O)O)N(C(=O)C(c1ccccc1)c1ccccc1)C2 , give its measured IC50 value.
Reply: 7.4
